B1: Far upstream element-binding protein 1, residues 184 to 257; numbered along this chain, Q96AE4 (parent)
chain: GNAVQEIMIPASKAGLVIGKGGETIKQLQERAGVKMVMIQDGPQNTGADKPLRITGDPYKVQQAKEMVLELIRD

variants of: B1; test: abundance fitness (aPCA) (normalised: wild type 0, dead -1); higher = more abundant; growth selection in yeast, the domain comes from the species named; details: Homo sapiens
Note to self: values exactly at -0.03 are rule met. So abundance fitness at or above -0.03 is rule met, below is rule not met.

# Sequence Data, Assigned Label
records = [
    ("GNAVQEIMIPASKAGLVIGKGGETIKQLQERAGVKMVMIQDGPQNTGADKPLRITGDPYKVQQAKEVVLELIRD [M67V]", "rule not met"),
    ("GNAVQEIMIPASKAGLVIGKGGETIKQLQERAGVKMVMIQDGPQNTGADKPLRITGDPYKVQQAKEMVLELCRD [I72C]", "rule met"),
    ("GNAVQEIMIPASKAGLVIGKGGETIKQLQERAGVKMVMIQDGPQNTGADKPLRIPGDPYKVQQAKEMVLELIRD [T55P]", "rule not met"),
    ("GNAVQEIMIPASKAGLVIGKGGETIKQLQERAGVKMVMIQDGPQNTGADKPLRITGDPYKVQQAKEMVLQLIRD [E70Q]", "rule not met"),
    ("GNAVQEIMIPASKAGLVIGKGGETIKQLQERAGVKYVMIQDGPQNTGADKPLRITGDPYKVQQAKEMVLELIRD [M36Y]", "rule not met"),
    ("GNAVQEIMIPASKAGLVIGKGGETIKQLQEQAGVKMVMIQDGPQNTGADKPLRITGDPYKVQQAKEMVLELIRD [R31Q]", "rule met"),
    ("GNAVQEIMIPASKAGLVIGKGGETIKQLQERAGVKMVMIQDGPQNTGADKPLRITGDPYKVQQAKEMVGELIRD [L69G]", "rule met"),
    ("GNAVQEIMIPASKAGLVIGKQGETIKQLQERAGVKMVMIQDGPQNTGADKPLRITGDPYKVQQAKEMVLELIRD [G21Q]", "rule met"),
    ("GNAVQEIMIPASKAMLVIGKGGETIKQLQERAGVKMVMIQDGPQNTGADKPLRITGDPYKVQQAKEMVLELIRD [G15M]", "rule met"),
    ("GNAVQEIMIPASKAGLVIGKGGETIKQLQERAGVKMVMIQDGPQNTGADKPLRITGDMYKVQQAKEMVLELIRD [P58M]", "rule met"),
    ("GNAVQEIMIPASKAGLVIDKGGETIKQLQERAGVKMVMIQDGPQNTGADKPLRITGDPYKVQQAKEMVLELIRD [G19D]", "rule not met"),
    ("GNAVQEIMIPASKAGLVIGKGGETFKQLQERAGVKMVMIQDGPQNTGADKPLRITGDPYKVQQAKEMVLELIRD [I25F]", "rule not met"),
    ("GNAVQEIMIPASYAGLVIGKGGETIKQLQERAGVKMVMIQDGPQNTGADKPLRITGDPYKVQQAKEMVLELIRD [K13Y]", "rule not met"),
    ("GNAVQEIMIPASKAGLVIGKGGETIKQLQERAGVKMVMIQDGPQNTGADKPLRITGDPYKVQQAKEPVLELIRD [M67P]", "rule not met"),
    ("GNAVQEIMIPASKVGLVIGKGGETIKQLQERAGVKMVMIQDGPQNTGADKPLRITGDPYKVQQAKEMVLELIRD [A14V]", "rule met"),
    ("GNAVQEIMIPASKAGLVIGKGHETIKQLQERAGVKMVMIQDGPQNTGADKPLRITGDPYKVQQAKEMVLELIRD [G22H]", "rule not met"),
    ("GNAVQEIMIPASKAGLVIGKGGETIKQLQERAGVKMVMIQDGPQNTGADKPLRITGDPYKVQQIKEMVLELIRD [A64I]", "rule not met"),
    ("GNAVQEIMIPAVKAGLVIGKGGETIKQLQERAGVKMVMIQDGPQNTGADKPLRITGDPYKVQQAKEMVLELIRD [S12V]", "rule not met"),
    ("GNAVQEIMIPAQKAGLVIGKGGETIKQLQERAGVKMVMIQDGPQNTGADKPLRITGDPYKVQQAKEMVLELIRD [S12Q]", "rule not met"),
    ("GNAVQEIMIPASKAGLVIGKGGETIKQLQERAGVKMVMIQDGPQNTGADKPLRITGDPYKVQHAKEMVLELIRD [Q63H]", "rule not met"),
    ("GNAVQEIMIPASKAGLVIGKGGETIKQLQERAGHKMVMIQDGPQNTGADKPLRITGDPYKVQQAKEMVLELIRD [V34H]", "rule not met"),
    ("GNAVQEIMIPASHAGLVIGKGGETIKQLQERAGVKMVMIQDGPQNTGADKPLRITGDPYKVQQAKEMVLELIRD [K13H]", "rule not met"),
    ("GNAVQEIMIPASKAGLVIGKGGETIKQLTERAGVKMVMIQDGPQNTGADKPLRITGDPYKVQQAKEMVLELIRD [Q29T]", "rule not met"),
    ("GNAVQEIMIPASKAGLVIGKGGETIKQLQERAGVKMVMIQDGPQNTGADKPLRITGDVYKVQQAKEMVLELIRD [P58V]", "rule not met"),
    ("GNAVQEIMIPASKAGLVIGKGGETIKQLDERAGVKMVMIQDGPQNTGADKPLRITGDPYKVQQAKEMVLELIRD [Q29D]", "rule not met"),
    ("GNAVQEIMIPASKAGLVIGKGGETIKQLQERAGVKMVMIQGGPQNTGADKPLRITGDPYKVQQAKEMVLELIRD [D41G]", "rule met"),
    ("GNAVQEIMIPASKAGLVITKGGETIKQLQERAGVKMVMIQDGPQNTGADKPLRITGDPYKVQQAKEMVLELIRD [G19T]", "rule not met"),
    ("GNAVQEIMIPASKAGLVILKGGETIKQLQERAGVKMVMIQDGPQNTGADKPLRITGDPYKVQQAKEMVLELIRD [G19L]", "rule not met"),
    ("GNAVQEIMIPWSKAGLVIGKGGETIKQLQERAGVKMVMIQDGPQNTGADKPLRITGDPYKVQQAKEMVLELIRD [A11W]", "rule not met"),
    ("GNAVQEIMIPASKQGLVIGKGGETIKQLQERAGVKMVMIQDGPQNTGADKPLRITGDPYKVQQAKEMVLELIRD [A14Q]", "rule met"),
    ("GNAVQEIMIPASKAGLVIGKGGETIKQLQERAGVKMVMIQDGPQNTGADKPLRITGDPYKVQQALEMVLELIRD [K65L]", "rule not met"),
    ("GNAVQEIMIPASKAGLVIGKGGETIKQLQERAGVKMVMIQDGPQNTGADKPLRITGDPYKVQQAKENVLELIRD [M67N]", "rule not met"),
    ("GNAVQEIMIPASKAGLVIGKGGETIKQLQERAGVKMVMIQDGPQNTGADKPLRITGDPYKVQQAKEMVLKLIRD [E70K]", "rule met"),
    ("GNAVQEIMIPASKAGLVIGKTGETIKQLQERAGVKMVMIQDGPQNTGADKPLRITGDPYKVQQAKEMVLELIRD [G21T]", "rule not met"),
    ("GNAVQEIMIPASKAGLVIGKGGETIKQLQERAGVKMVMIQDGPQNTGADKPLRITGDPYKVQQAKEMVLELITD [R73T]", "rule met"),
    ("GNAVQEIMIPASKAGLVIGPGGETIKQLQERAGVKMVMIQDGPQNTGADKPLRITGDPYKVQQAKEMVLELIRD [K20P]", "rule met"),
    ("GNAVQEIMIPASKAGLVIGKGGETIKQLQERAGVKMVMIQDGPQNTGADKPLRITGDPYKVQQAKEMVLELFRD [I72F]", "rule not met"),
    ("GNAVQEIMIPASKAGLVIGKGGETIKQLQERAGVKMVMIQDGPQNTGAAKPLRITGDPYKVQQAKEMVLELIRD [D49A]", "rule met"),
    ("GNAVQEIMIPASKAGLVIGKEGETIKQLQERAGVKMVMIQDGPQNTGADKPLRITGDPYKVQQAKEMVLELIRD [G21E]", "rule not met"),
    ("GNAVQEIMIPASKAGLVIGKGGETIKQLQERMGVKMVMIQDGPQNTGADKPLRITGDPYKVQQAKEMVLELIRD [A32M]", "rule met"),
    ("GNAVQEIMIPASKAGLVIGKGGETIKQLQERAGVKMVMIQDGPLNTGADKPLRITGDPYKVQQAKEMVLELIRD [Q44L]", "rule not met"),
    ("GNAVQEIMIPASKAGLVIGKGGETIKQLQERAGVKMVMIQDGPQNTGADKLLRITGDPYKVQQAKEMVLELIRD [P51L]", "rule not met"),
    ("GNAVQEIMIPASKAGLVIGKGGETIKSLQERAGVKMVMIQDGPQNTGADKPLRITGDPYKVQQAKEMVLELIRD [Q27S]", "rule met"),
    ("GNAVQEIMIPASFAGLVIGKGGETIKQLQERAGVKMVMIQDGPQNTGADKPLRITGDPYKVQQAKEMVLELIRD [K13F]", "rule not met"),
    ("GNAVQEIMIPASKAGLVIGKGGLTIKQLQERAGVKMVMIQDGPQNTGADKPLRITGDPYKVQQAKEMVLELIRD [E23L]", "rule not met"),
]
